These measurements were taken from patent US20240343814A1.

Target: Recombinant human his-tagged IGF 1R extracellular domain protein (human) (UniProt P08069)
Assay: SPR, captured IgG, IGF-1R ECD-his analyte, dissociation pH 7.4
Would you mind telling me the reported koff of each entry?
Enter your answer as a number in s⁻¹; do not include the unit.

Q: What value of measured koff is listed for VRDN-02529 (antibody, V domains shown) VH: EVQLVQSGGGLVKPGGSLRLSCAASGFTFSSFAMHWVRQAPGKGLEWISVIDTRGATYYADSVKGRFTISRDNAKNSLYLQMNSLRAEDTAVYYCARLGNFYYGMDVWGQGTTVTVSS VL: EIVLTQSPGTLSVSPGERATLSCRHSQSIGSSLHWYQQKPGQAPRLLIKYASQSLSGIPDRFSGSGSGTDFTLTISRLEPEDFAVYYCHQSSRLPHTFGQGTKVEIK ?
Ans: 0.000103

Q: What value of measured koff is listed for VRDN-02540 (antibody, V domains shown) VH: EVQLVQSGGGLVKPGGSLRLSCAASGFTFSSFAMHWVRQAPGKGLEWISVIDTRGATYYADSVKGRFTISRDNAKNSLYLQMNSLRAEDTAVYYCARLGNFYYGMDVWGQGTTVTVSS VL: EIVLTQSPGTLSVSPGERATLSCRASQSIGSSLHWYQQKPGQAPRLLIKYHSQSLSGIPDRFSGSGSGTDFTLTISRLEPEDFAVYYCHQSSRLPHTFGQGTKVEIK ?
Ans: 4.25e-05

Q: What value of measured koff is listed for VRDN-02534 (antibody, V domains shown) VH: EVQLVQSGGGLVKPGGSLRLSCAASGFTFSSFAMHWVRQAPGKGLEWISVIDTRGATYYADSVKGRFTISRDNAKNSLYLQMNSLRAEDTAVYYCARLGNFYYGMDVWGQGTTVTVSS VL: EIVLTQSPGTLSVSPGERATLSCRASQSIHSSLHWYQQKPGQAPRLLIKYASQSLSGIPDRFSGSGSGTDFTLTISRLEPEDFAVYYCHQSSRLPHTFGQGTKVEIK ?
Ans: 1e-06

Q: What value of measured koff is listed for VRDN-02533 (antibody, V domains shown) VH: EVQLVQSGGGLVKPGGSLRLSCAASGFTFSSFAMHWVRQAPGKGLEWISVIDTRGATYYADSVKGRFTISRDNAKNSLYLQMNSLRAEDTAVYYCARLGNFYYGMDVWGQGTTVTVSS VL: EIVLTQSPGTLSVSPGERATLSCRASQSHGSSLHWYQQKPGQAPRLLIKYASQSLSGIPDRFSGSGSGTDFTLTISRLEPEDFAVYYCHQSSRLPHTFGQGTKVEIK ?
Ans: 4.45e-05

Q: What value of measured koff is listed for VRDN-02506 (antibody, V domains shown) VH: EVQLVQSGGGLVKPGGSLRLSCAASGFTFSHFAMHWVRQAPGKGLEWISVIDTRGATYYADSVKGRFTISRDNAKNSLYLQMNSLRAEDTAVYYCARLGNFYYGMDVWGQGTTVTVSS VL: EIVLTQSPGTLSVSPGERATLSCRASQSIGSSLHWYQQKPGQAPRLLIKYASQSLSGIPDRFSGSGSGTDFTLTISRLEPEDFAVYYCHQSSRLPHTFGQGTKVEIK ?
Ans: 1e-06
